- test.summary: In vivo pharmacokinetic assays in rats (intragastric and intravenous), plasma Compound 14 by LC-MS/MS
- Parameters: species or system SD rats
- condition.info: male, SD, rat, in vivo, po, 15 mg/kg, rats, 15 mg/kg Compound 14 intragastric; individual animals No. 15-18; read-out: MRT
attribute.measured: MRT (h)

CN1CC(c2ccc(-c3ccc4c(c3)OC[C@H]3[C@H](CO)OC(=O)N43)cn2)OC1=O (stereo partly shown)
3.36

====

- Test system: Staphylococcus aureus sensitive strains (5 strains)
- test.summary: In vitro antibacterial activity, MIC by agar double dilution method
- Assay type: cell-based
- condition.info: clinical isolates
# MIC per record follows
attribute.measured: MIC

C[C@@H](O)C(O)c1ccc(-c2ccc3c(c2)OC[C@H]2[C@H](CO)OC(=O)N32)cn1 (some centres unmarked)
2 to 4 µg/mL
O=C1OC(CO)CN1c1ccc(-c2ccc3c(c2)OC[C@H]2[C@H](CO)OC(=O)N32)cn1 (some centres unmarked)
0.5 to 1 µg/mL
NCc1ccc(-c2ccc3c(c2)OC[C@H]2[C@H](CO)OC(=O)N32)cn1
2 to 4 µg/mL
O=C1O[C@@H](CO)[C@@H]2COc3cc(-c4ccc(C(O)C5CC5)nc4)ccc3N12 (some centres unmarked)
1 µg/mL
C[C@@H](O)C(=O)c1ccc(-c2ccc3c(c2)OC[C@H]2[C@H](CO)OC(=O)N32)cn1
0.25 µg/mL
CC(=O)c1ccc(-c2ccc3c(c2)OC[C@H]2[C@H](CO)OC(=O)N32)cn1
2 to 4 µg/mL
O=C1O[C@@H](CO)[C@@H]2COc3cc(-c4ccc(CO)nc4)ccc3N12
1 to 2 µg/mL
O=C1O[C@@H](CO)[C@@H]2COc3cc(-c4ccc(Cn5cncn5)nc4)ccc3N12
0.5 to 1 µg/mL

Reference source: patent US9416144B2
